ASSAY INFO: total protein half-life in vivo (active degradation + dilution); higher = more stable protein
RECORDED CONDITIONS: wild type E. coli NCM3722; growth: N-lim chemostat; doubling time 6 h
ASSAY READOUT: total protein half-life in vivo

Task: // Input: `MKKLQIAVGIIRNENNEIFITRRAADAHMANKLEFPGGKIEMGETPEQAVVRELQEEVGITPQHFSLFEKLEYEFPDRHITLWFWLVERWEGEPWGKEGQPGEWMSLVGLNADDFPPANEPVIAKLKRL` . Output its total protein half-life in vivo only.
Result: 4.16 h

Task: // Input: METFNSLFMVSPLLLGVLFFVAMLAGFIDSIAGGGGLLTIPALMAAGMSPANALATNKLQACGGSISATIYFIRRKVVSLSDQKLNIAMTFVGSMSGALLVQYVQADVLRQILPILVICIGLYFLLMPKLGEEDRQRRMYGLPFALIAGGCVGFYDGFFGPAAGSFYALAFVTLCGFNLAKATAHAKLLNATSNIGGLLLFILGGKVIWATGFVMLVGQFLGARMGSRLVLSKGQKLIRPMIVIVSAVMSAKLLYDSHGQEILHWLGMN [P0AD30] . Output its total protein half-life in vivo only.
Result: 4.37 h

Task: // Input: `MDVRQSIHSAHAKTLDTQGLRNEFLVEKVFVADEYTMVYSHIDRIIVGGIMPITKTVSVGGEVGKQLGVSYFLERRELGVINIGGAGTITVDGQCYEIGHRDALYVGKGAKEVVFASIDTGTPAKFYYNCAPAHTTYPTKKVTPDEVSPVTLGDNLTSNRRTINKYFVPDVLETCQLSMGLTELAPGNLWNTMPCHTHERRMEVYFYFNMDDDACVFHMMGQPQETRHIVMHNEQAVISPSWSIHSGVGTKAYTFIWGMVGENQVFDDMDHVAVKDLR` . Output its total protein half-life in vivo only.
Result: 4.18 h

###

ASSAY INFO: total protein half-life in vivo (active degradation + dilution); higher = more stable protein
RECORDED CONDITIONS: wild type E. coli NCM3722; growth: C-lim chemostat; doubling time 6 h
ASSAY READOUT: total protein half-life in vivo (h)
Expressed in h, but write only the number.

Task: // Input: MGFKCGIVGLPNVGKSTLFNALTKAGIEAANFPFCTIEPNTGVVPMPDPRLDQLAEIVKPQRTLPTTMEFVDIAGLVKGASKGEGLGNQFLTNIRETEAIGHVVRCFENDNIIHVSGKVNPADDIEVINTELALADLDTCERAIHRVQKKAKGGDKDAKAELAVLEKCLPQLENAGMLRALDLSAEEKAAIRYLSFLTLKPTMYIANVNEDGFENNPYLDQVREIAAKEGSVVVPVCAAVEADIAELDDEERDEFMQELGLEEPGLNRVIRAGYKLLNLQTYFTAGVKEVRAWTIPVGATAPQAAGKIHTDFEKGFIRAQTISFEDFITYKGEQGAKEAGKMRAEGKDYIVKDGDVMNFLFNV [P0ABU2] . Output its total protein half-life in vivo only.
Result: 4.77

Task: // Input: `MTEQQISRTQAWLESLRPKTLPLAFAAIIVGTALAWWQGHFDPLVALLALITAGLLQILSNLANDYGDAVKGSDKPDRIGPLRGMQKGVITQQEMKRALIITVVLICLSGLALVAVACHTLADFVGFLILGGLSIIAAITYTVGNRPYGYIGLGDISVLVFFGWLSVMGSWYLQAHTLIPALILPATACGLLATAVLNINNLRDINSDRENGKNTLVVRLGEVNARRYHACLLMGSLVCLALFNLFSLHSLWGWLFLLAAPLLVKQARYVMREMDPVAMRPMLERTVKGALLTNLLFVLGIFLSQWAA` . Output its total protein half-life in vivo only.
Result: 6.18
